target.of.assay: T1, human GITR (human, UniProt Q9Y5U5 26-241)
T1 sequence: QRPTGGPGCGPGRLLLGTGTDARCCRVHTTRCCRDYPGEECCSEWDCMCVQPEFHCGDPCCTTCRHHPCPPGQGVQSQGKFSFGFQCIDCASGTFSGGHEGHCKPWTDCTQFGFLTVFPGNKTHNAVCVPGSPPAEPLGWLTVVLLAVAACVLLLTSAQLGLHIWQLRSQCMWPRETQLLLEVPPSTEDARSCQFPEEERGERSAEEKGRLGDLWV
assay.summary: cell-based or functional assay
value.kind: Proliferation (Fold over CD3) (fold over CD3)
Answers are plain numbers, in fold over CD3.

Reference set, count: 4
# binder, Proliferation (Fold over CD3) / fold over CD3
measured = [
    ("5H7v17 (antibody, human IgG1, kappa, V domains shown) VH: QVQLQESGPGLVKPSETLSLTCTVSGGSISSGGYFWSWIRQPPGKGLEWIGYIYYSGTTYYNPSLKSRVTISIDTSKNQFSLKLSSVTAADTAVYYCARDLFYYDTSGPRGFDPWGQGTLVTVSS VL: EIVLTQSPGTLSLSPGERATLSCRASQTVSSNYLAWYQQKPGQAPRLLIYGSSTRATGIPDRFSGSGSGTDFTLTISRLEPEDFAVYYCQQYDTSPWTFGQGTKVEIKR", 3),
    ("7A10v2 (antibody, human IgG1, kappa, V domains shown, Engineered variant; also called Ab40; SS-16938) VH: QVQLVESGGGVVQPGRSLRLSCAASGFTFSSYGMHWVRQAPGKGLEWMAVIWYVGSNKYYADSVKGRFTISRDNSKNTLYLQMNSLRAEDTAVYYCARGGELGRDYYSGMDVWGQGTTVTVSS VL: DIQMTQSPSSLSASVGDRVTITCRASQGIRNDLGWYQQKPGKAPKLLIYAASSLQSGVPSRFSGSGSGTEFTLTISSLQPEDFATYYCQQHNSYPWTFGQGTKVEIKR", 0.7),
    ("9H6v6 (antibody, human IgG1, kappa, V domains shown, Engineered variant; also called Ab49; SS-16947) VH: QVQLVESGGGVVQPGRSLRLSCVASGFTFSSYGMHWIRQAPGKGLEWVAVIWYEGSNKYYADTVKGRFTISRDNSKNTLYLQMNSLRAEDTAVYYCARGGRLGKDYYSGMDVWGQGTTVTVSS VL: DIQMTQSPSSLSASVGDRVTITCRASQGIRNDLGWYQQKPGKAPKLLIYATSSLQSGVPSRFSGSGSGTEFTLTISSLQPEDFATYYCLQHNTYPWTFGQGTKVEIKR", 1.5),
    ("9H6 (antibody, human IgG1, kappa, V domains shown, Parental fully human antibody; also called Ab19; SS-10945) VH: QVQLVESGGGVVQPGRSLRLSCVASGFTFSSYGMHWIRQAPGKGLEWVAVIWYEGSNKYYADSVKGRFTISRDNSKNTLYLQMNSLRAEDTAVYYCARGGRLGKDYYSGMDVWGQGTTVTVSS VL: DIQMTQSPSSLSASVGDRVTITCRASQGIRNDLGWYQQKPGKAPNRLIYATSSLQSGVPSRFSGSGSGTEFTLTISSLQPEDFATYYCLQHNTYPWTFGQGTKVEIKR", 3),
]

I would be grateful if you could provide Proliferation (Fold over CD3) for each of the following entries.
1. 7A10v1 (antibody, human IgG1, kappa, V domains shown, Engineered variant; also called Ab39; SS-13810) VH: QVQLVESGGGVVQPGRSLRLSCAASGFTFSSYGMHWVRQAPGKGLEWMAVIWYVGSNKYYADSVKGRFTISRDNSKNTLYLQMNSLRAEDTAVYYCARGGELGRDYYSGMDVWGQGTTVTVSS VL: DIQMTQSPSSLSASVGDRVTITCRASQGIRNDLGWYQQKPGKAPKRLIYAASSLQSGVPSRFSGSGSGTEFTLTISSLQPEDFATYYCQQHNSYPWTFGQGTKVEIKR
2. 7A10v5 (antibody, human IgG1, kappa, V domains shown, Engineered variant; also called Ab43; SS-16941) VH: QVQLVESGGGVVQPGRSLRLSCAASGFTFSSYGMHWVRQAPGKGLEWMAVIWYVGSNKYYAESVKGRFTISRDNSKNTLYLQMNSLRAEDTAVYYCARGGELGRDYYSGMDVWGQGTTVTVSS VL: DIQMTQSPSSLSASVGDRVTITCRASQGIRNDLGWYQQKPGKAPKLLIYAASSLQSGVPSRFSGSGSGTEFTLTISSLQPEDFATYYCQQHNSYPWTFGQGTKVEIKR
3. 41G5v4 (antibody, human IgG1, kappa, V domains shown, Engineered variant; also called Ab58; SS-16954) VH: QVQLVESGGGVVQPGRSLRLSCAASGFTFSSYGMHWVRQAPGKGLEWVAVIWYPGSNKYYAESVKGRFTISRDNSKNTLYLQMNSLRAEDTAVYYCARGGELGRYYYYGMDVWGQGTTVTVSS VL: DIQMTQSPSSLSASVGDRVTVTCRASQGIRNDLGWYQQKPGKAPKLLIYAASSLQSGVPSRFSGSGSGTEFTLTISSLQPEDFATYYCLQHNNYPWTFGQGTKVDIKR
4. 41G5v5 (antibody, human IgG1, kappa, V domains shown, Engineered variant; also called Ab59; SS-16955) VH: QVQLVESGGGVVQPGRSLRLSCAASGFTFSSYGMHWVRQAPGKGLEWVAVIWYPGSNKYYADTVKGRFTISRDNSKNTLYLQMNSLRAEDTAVYYCARGGELGRYYYYGMDVWGQGTTVTVSS VL: DIQMTQSPSSLSASVGDRVTVTCRASQGIRNDLGWYQQKPGKAPKLLIYAASSLQSGVPSRFSGSGSGTEFTLTISSLQPEDFATYYCLQHNNYPWTFGQGTKVDIKR
5. 5H7v14 (antibody, human IgG1, kappa, V domains shown, Engineered variant; also called Ab34; SS-16924) VH: QVQLQESGPGLVKPSETLSLTCTVSGGSISSGGYFWSWIRQPPGKGLEWIGYIYYSGTTYYNPSLKSRVTISIDTSKNQFSLKLSSVTAADTAVYYCARDLFYYDSSGPRGFEPWGQGTLVTVSS VL: EIVLTQSPGTLSLSPGERATLSCRASQTVSSNYLAWYQQKPGQAPRLLIYGSSTRATGIPDRFSGSGSGTDFTLTISRLEPEDFAVYYCQQYESSPWTFGQGTKVEIKR

RESULT:
3
0.6
2.2
2.5
1.9

Record summary for 7A10 (antibody, human IgG1, kappa, V domains shown, Parental fully human antibody; also called Ab18; SS-10944) VH: QVQLVESGGGVVQPGRSLRLSCAASGFTFSSYGMHWVRQAPGKGLEWMAVIWYVGSNKYYADSVKGRFTISRDNSKNTLYLQMNSLSAEDTAVYYCARGGELGRDYYSGMDVWGQGTTVTVSS VL: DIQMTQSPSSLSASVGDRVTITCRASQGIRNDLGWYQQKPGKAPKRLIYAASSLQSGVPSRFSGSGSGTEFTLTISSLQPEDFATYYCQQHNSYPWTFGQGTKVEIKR : reported Proliferation (Fold over CD3) = 3.4

Reference for the values: patent US20150064204A1
